Examples of molecules with documented MIC Streptococcus pneumoniae (GC 1894) follow.
System: Streptococcus sp.
measurementNotes: In vitro antibacterial evaluation: minimum inhibitory concentration (MIC), broth dilution method
Assay type: cell-based
experimentalContext: broth dilution, 18 hours at 35° C.
Numbered stars: 1 amine (or outer) side, 2 acyl side, 3 side chain; on linkers, the order of the positions; unused ones are H or OH. Square brackets hold non-standard residues; d marks the D form. Peptide text beside a SMILES is read from it. * marks the point of attachment. ξ: configuration not given here. X1 = N=C1NCC(C(O)C(N[*:1])C(=O)[*:2])N1C1OC(CO)C(O)C(O)C1O; ξEnduracididine(βξ-OH,4'ξ) = N=C1NCC(C(O)C(N)C(=O)O)N1; X2 = OCC1OC(OC2C(CO)OC(*)C(O)C2O)C(O)C(O)C1O; ξCha(3ξ-Me) = CC(C1CCCCC1)C(N)C(=O)O; Cha = N[CH](CC1CCCCC1)C(=O)O
Please respond with the number in mg/L and leave the unit unwritten.

// below: answered molecules
CC(C1CCCCC1)C1NC(=O)CNC(=O)C(CO)NC(=O)C(C(O)C2CNC(=N)N2C2OC(CO)C(O)C(O)C2O)NC(=O)C(C(O)C2CNC(=N)N2)NC(=O)C(Cc2ccc(OC3OC(CO)C(OC4OC(CO)C(O)C(O)C4O)C(O)C3O)cc2)NC1=O (stereo not drawn) [Example 51] (cyclo(G[ξCha(3ξ-Me)]Y(X2)[ξEnduracididine(βξ-OH,4'ξ)][X1]S); configuration not given here) :: 4
CC(c1ccccc1)C1NC(=O)CNC(=O)C(CO)NC(=O)C(C(O)C2CNC(=N)N2C2OC(CO)C(O)C(O)C2O)NC(=O)C(C(O)C2CNC(=N)N2)NC(=O)C(Cc2ccc3oc(=O)[nH]c3c2)NC1=O (centres unmarked) :: 8
CC(c1ccccc1)C1NC(=O)CNC(=O)C(CO)NC(=O)C(C(O)C2CNC(=N)N2C2OC(CO)C(O)C(O)C2O)NC(=O)C(C(O)C2CNC(=N)N2)NC(=O)C(Cc2ccc3oc(-c4ccc(N(C)C)cc4)nc3c2)NC1=O (centres unmarked) :: 32
CC(c1ccccc1)C1NC(=O)CNC(=O)C(CO)NC(=O)C(C(O)C2CNC(=N)N2C2OC(CO)C(O)C(O)C2O)NC(=O)C(C(O)C2CNC(=N)N2)NC(=O)C(Cc2ccc3oc(SCc4ccc5ccccc5c4)nc3c2)NC1=O (centres unmarked) :: 8
CC(C1CCCCC1)C1NC(=O)CNC(=O)C(CO)NC(=O)C(C(O)C2CNC(=N)N2C2OC(CO)C(O)C(O)C2O)NC(=O)C(C(O)C2CNC(=N)N2)NC(=O)C(CC2CCCCC2)NC1=O (stereo not drawn) [Example 53] (cyclo(G[ξCha(3ξ-Me)][Cha][ξEnduracididine(βξ-OH,4'ξ)][X1]S); configuration not given here) :: 1

Query CC(c1ccccc1)C1NC(=O)CNC(=O)C(CO)NC(=O)C(C(O)C2CNC(=N)N2C2OC(CO)C(O)C(O)C2O)NC(=O)C(C(O)C2CNC(=N)N2)NC(=O)C(Cc2ccc3oc(-c4cccc([N+](=O)[O-])c4)nc3c2)NC1=O (centres unmarked) on Streptococcus sp.; MIC Streptococcus pneumoniae (GC 1894) returned: 16

Query CC(c1ccccc1)C1NC(=O)CNC(=O)C(CO)NC(=O)C(C(O)C2CNC(=N)N2C2OC(CO)C(O)C(O)C2O)NC(=O)C(C(O)C2CNC(=N)N2)NC(=O)C(Cc2ccc3oc(-c4ccoc4)nc3c2)NC1=O (centres unmarked) on Streptococcus sp.; MIC Streptococcus pneumoniae (GC 1894) returned: 32

Query CC(c1ccccc1)C1NC(=O)CNC(=O)C(CO)NC(=O)C(C(O)C2CNC(=N)N2C2OC(CO)C(O)C(O)C2O)NC(=O)C(C(O)C2CNC(=N)N2)NC(=O)C(Cc2ccc3oc(-c4cccc(F)c4)nc3c2)NC1=O (centres unmarked) on Streptococcus sp.; MIC Streptococcus pneumoniae (GC 1894) returned: 16
